System: HL-60(TB) leukemia
EXPERIMENTAL_PROTOCOL: NCI-60 one-dose screen, 48 h
EXPERIMENTAL_CONTEXT: 10 µM unless noted
The panel holds about 83,000 compounds, 20% with a hit somewhere; the sample as a whole holds those more often. Calls of active or inactive are those of the source. Rule for the calls: active = growth percent below 10; inactive = the rest.
Thanks in advance; please answer with one of these: yes (1) for active, no (0) for inactive

# example entries with known answers
O=[N+]([O-])c1ccc2[nH]cc(-c3c4ccccc4cc4[nH]c5ccc([N+](=O)[O-])cc5c34)c2c1 : no (0)
Cc1ccc(Nc2nc(N)c3ccccc3n2)cc1Cl : no (0)
O=C(O)C1CCCN1C(=O)OCc1ccccc1 (stereo not given) : no (0)
Cc1ccc(C)c(C(O)(c2cc(C)ccc2C)C2(O)CCCCC2)c1 : no (0)
COc1ccc(-c2nnc(SCC(=O)Nc3ccc(C(=O)/C=C/c4ccccc4)cc3)n2-c2ccccc2)cc1OC : no (0)
C=CCn1c(SCC(=O)Nc2ccc(C(=O)/C=C/c3ccc(Cl)cc3)cc2)nnc1-c1cc(-c2ccc(S(N)(=O)=O)cc2)nc2ccccc12 : no (0)
O=C(Nc1ccc(Cl)cc1)c1cc(-c2ccc(F)cc2)c2sc(=O)[nH]c2n1 : yes (1)
O=C(CCc1nnc2sc(COc3ccccc3)nn12)c1nc2ncccc2[nH]1 : no (0)

[ask] What was the test verdict on `Cc1cc(SCc2ccc(Cl)cc2Cl)nc(SCc2ccc(Cl)cc2Cl)n1` ?
[reply] no (0)

[ask] What was the test verdict on `Cn1cc(-c2csc(-c3cn(C(=O)OC(C)(C)C)c4ccc(Br)cc34)n2)c2ccnc(Cl)c21` ?
[reply] no (0)

###

Tested on: HL-60(TB) leukemia
EXPERIMENTAL_PROTOCOL: NCI-60 one-dose screen, 48 h
EXPERIMENTAL_CONTEXT: 10 µM unless noted
The panel holds about 83,000 compounds, 20% with a hit somewhere; the sample as a whole holds those more often. Active and inactive are the calls of the source. How the source made its calls: active means growth percent below 10; inactive means the rest.
Thanks in advance; please answer with one of these: active, inactive

CN1CCN(CC#CCNC(=O)[C@]23CCC(C)(C)C[C@H]2C2=CC[C@@H]4[C@@]5(C)Cc6c([nH]c7ccccc67)C(C)(C)[C@@H]5CC[C@@]4(C)[C@]2(C)CC3)CC1 : inactive

Then this compound:
[ask] What was the test verdict on `Cn1cc(-c2csc(-c3c[nH]c4ccccc34)n2)c2cccnc21` ?
[reply] inactive

###

Readings of growth for the listed molecules
Test system: HL-60(TB) leukemia
EXPERIMENTAL_PROTOCOL: NCI-60 one-dose screen, 48 h (100 = growth as untreated, 0 = no growth, -100 = all killed)
EXPERIMENTAL_CONTEXT: 10 µM unless noted
About 83,000 compounds went through this panel and 20% of them were active in at least one assay; those are over-represented in the sample as a whole.
Field format: number, assumed %, no unit text.

Would you please look over these solved cases?
COc1cccc2cc(-c3nc(C4CCC(C(=O)O)CC4)n4ncnc(N)c34)[nH]c12 (stereo unspecified) : 33.3
Nc1ccn(-c2ccc(Br)cc2)c(=O)n1 : 125
Cc1ccc(/C=C2\CN(Cc3cn(CCNc4ccnc5cc(Cl)ccc45)nn3)C/C(=C\c3ccc(C)cc3)C2=O)cc1 : -28.8
COc1ccc(/C=N/C2=C(C#N)C(c3ccccc3[N+](=O)[O-])c3ccc4ccccc4c3O2)cc1 (stereo unspecified) : 100
S=C1CCSC(=S)N1CCCN1C(=S)CCSC1=S : 36.5

Proceed to the following item.
[ask] Which growth reading was recorded for the molecule `COc1cc2oc(-c3cccc(NC(=O)c4ccccc4)c3)cc(=O)c2c(OC)c1OC` ?
[reply] 60.5
